System: H69AR cells
procedureDetails: Cytotoxicity in panel of MDR cell lines, H69AR (72 h and 144 h)
Format: cell-based, human
conditions: 144 h incubation
Reported H69AR % Kill 144 h values are given for each entry in this list.
measurementKind: H69AR % Kill 144 h

testsmiles=C#CCCCCN(C(=O)[C@@H](NC(=O)[C@H]1CCCCN1C)[C@@H](C)CC)[C@H](C[C@@H](OC(C)=O)c1nc(C(=O)N[C@@H](Cc2ccc(N)cc2)CC(C)(C)C(=O)O)cs1)C(C)C result=99.5%
testsmiles=C#CCCCON(C(=O)[C@@H](NC(=O)[C@H]1CCCCN1C)[C@@H](C)CC)[C@H](C[C@@H](OC(C)=O)c1nc(C(=O)N[C@@H](Cc2ccc(O)cc2)C[C@H](C)C(=O)O)cs1)C(C)C result=98.4%
testsmiles=CC[C@H](C)[C@H](NC(=O)[C@H]1CCCCN1C)C(=O)N(CCCCc1cn(-c2ccccc2)nn1)[C@H](C[C@@H](OC(C)=O)c1nc(C(=O)N[C@@H](Cc2ccc(N)cc2)CC(C)(C)C(=O)O)cs1)C(C)C result=99.2%
